- Target of assay: Schistosoma mansoni thioredoxin glutathione reductase (TGR) (UniProt Q962Y6)
- Run description: qHTS Assay for the Inhibitors of Schistosoma Mansoni Peroxiredoxins; further: nearly all actives have a fitted effect of over 60% in size
- Settings: purified TGR, DTNB reduction, TNB absorbance 405 nm; series mostly up to 114 µM
About 11,000 (3.1%) of roughly 360,000 compounds were called active. Inconclusive results (about 4%) are left out. The sample holds actives, similar compounds and a random draw of the others, so the mix is not that of the screen.
Parameter measured: outcome

compound=C/C(=N/NC(=O)CC(=O)N/N=C(\C)c1ccc([N+](=O)[O-])cc1)c1ccc([N+](=O)[O-])cc1 parameter_measured=outcome recorded_measurement=inactive
compound=COc1cccc(CNC(=O)Cn2c(=O)c3cccn3c3ccc(F)cc32)c1OC parameter_measured=outcome recorded_measurement=inactive
compound=Cc1ccc(C(=O)Cn2cc([N+](=O)[O-])nc2C)cc1 parameter_measured=outcome recorded_measurement=inactive
compound=CC(=O)c1ccc(NC(=O)c2nc3nc(C)cc(C(F)F)n3n2)cc1 parameter_measured=outcome recorded_measurement=inactive
compound=Cc1ccc(NC(=O)CSc2nc3c([nH]c4ccccc43)c(=O)n2-c2ccccc2)c(C)c1 parameter_measured=outcome recorded_measurement=inactive
compound=CC(=O)c1ccc(NC(=O)CSc2nnc(NC(=O)Nc3ccccc3)s2)cc1 parameter_measured=outcome recorded_measurement=inactive
compound=O=C(NC1CCCCCC1)c1cccnc1Sc1ccc(Cl)cc1 parameter_measured=outcome recorded_measurement=inactive
compound=Cc1nn(CC(=O)O)c(=O)c2cc3cc(F)ccc3n12 parameter_measured=outcome recorded_measurement=inactive

Provide outcome for all items below, preserving their order.
1. O=C(N/N=C/c1ccc(Br)o1)c1cncc(Br)c1
2. O=C(NC1CCCC1)c1cc(-c2ccccc2)on1
3. CCOC(=O)c1[nH]c(C)c(CCC(=O)N2CCN(c3ccccc3)CC2)c1C
4. Cc1ccc(N(CC(=O)NCc2ccc(Cl)cc2)S(=O)(=O)N(C)C)cc1
5. COc1cc(OC)cc(-c2nc3nc(C)c(CCC(=O)Nc4ccc(C)cc4)c(C)n3n2)c1
6. O=C1Cc2cc(S(=O)(=O)Nc3ccc(OC(F)(F)F)cc3)cc3c2N1CCC3

[reply]
1. inactive
2. inactive
3. inactive
4. inactive
5. inactive
6. inactive

Provide outcome for all items below, preserving their order.
1. COc1cc(C(=O)Nc2ccc(OCc3cc(=O)n4cc(C)sc4n3)cc2)cc(OC)c1OC
2. CCOc1cc(C2c3c(-c4ccc(Br)cc4)n[nH]c3C(=O)N2c2ccc(Cl)cc2)ccc1O (stereo unspecified)
3. CCOc1ccc(Nc2nc3c(S(=O)(=O)c4cccc(Cl)c4)nnn3c3ccsc23)cc1
4. CCS(=O)(=O)N1CCC(n2c(C)nc3cccnc32)CC1
5. CCOC(=O)c1ccc(N2C(=O)c3[nH]nc(-c4ccccc4)c3C2c2ccc(C(C)C)cc2)cc1 (stereo unspecified)

[reply]
inactive
inactive
inactive
inactive
inactive

Provide outcome for all items below, preserving their order.
1. CCOC(=O)C1CCCN(CC(=O)Nc2cc(C)c3c(=O)oc4ccccc4c3n2)C1 (stereo unspecified)
2. Cc1cccc(-n2ccnc2SCC(=O)Nc2cc(C(F)(F)F)ccc2Cl)c1

[reply]
["inactive", "inactive"]

* * *

- Target of assay: Schistosoma mansoni thioredoxin glutathione reductase (TGR) (UniProt Q962Y6)
- Run description: qHTS Assay for the Inhibitors of Schistosoma Mansoni Peroxiredoxins; further: nearly all actives have a fitted effect of over 60% in size
- Settings: purified TGR, DTNB reduction, TNB absorbance 405 nm; series mostly up to 114 µM
In all, about 360,000 compounds went through this assay and about 11,000 (3.1%) were called active. Inconclusive results (about 4%) are left out. The call rests on the fitted dose curve; in most records, active means well fitted inhibition curve with a large enough effect; inconclusive means small, poorly fitted or top-dose-only effect; inactive means no such curve, though single readings can be large or run the other way. Shown is part of a subset that was picked to be rich in actives.
Returns: one label drawn from T (active), F (inactive)

Example cases with answers are listed next.
mol=O=C(CSc1nccn1-c1ccc(F)cc1)Nc1cccc2ccccc12 class_name=F
mol=COc1cc(NC(=O)c2cc(C3CC3)nc3c2c(C)nn3-c2ccccc2)cc(OC)c1 class_name=F
mol=Cc1c(NC(=O)Nc2cccc([N+](=O)[O-])c2)c(=O)n(-c2ccccc2)n1C class_name=F
mol=CCC(=O)N1CCc2cc(Br)cc(S(=O)(=O)CCC(=O)NCCc3ccc(OC)c(OC)c3)c21 class_name=F
mol=O=C(Nc1cccc([N+](=O)[O-])c1)N1CCc2ccccc2C1 class_name=F

[ask] Write down the call the test reported for this compound. Item: Cc1ccccc1NC(=S)Nc1cccc([N+](=O)[O-])c1
[reply] T

Provenance of the data: PubChem BioAssay AID485364
